Listing of recorded RU30/RUNef (extent of binding) by entry.
Target: HIV-1 NefNL4-3 (Human immunodeficiency virus type 1 group M subtype B, UniProt P03406, A33V/T15A/T51N/V11I)
Assay: Surface plasmon resonance binding to recombinant full-length Nef (NL4-3)
Settings: response units at 30 μM relative to Nef immobilized on the SPR chip
Express the result in E- 02 but write the number alone.

Solved cases below.
>  <Chemical string>
CS(=O)(=O)c1ccc(-c2nn(-c3nc4cc(Cl)ccc4[nH]3)c(O)c2CCC2CCNCC2)cc1

>  <RU30/RUNef (extent of binding) / E- 02>
1.75

$$$$
>  <Chemical string>
Oc1c(CCc2ccc(F)cc2)c(-c2ccc(C(F)(F)F)cc2)nn1-c1nc2cccnc2[nH]1

>  <RU30/RUNef (extent of binding) / E- 02>
1.34

$$$$

Next:
Lookup: Report measured RU30/RUNef (extent of binding); entry is Oc1c(CCc2ccc(F)cc2)c(-c2ccc(C(F)(F)F)cn2)nn1-c1nc2cc(F)ccc2[nH]1
Found: 1.11
